Assay: Selectivity index, ratio of EC50 for mouse J774A.1 cells to EC50 for of beta-lactamase expressing Leishmania donovani MHOM/ET/67/L82 infected in CD-1 mouse peritoneal macrophages
Lab note: compare selectivity ratio with 3, writing Fulfilled if less and Not fulfilled if equal or more.

Examples with answers:
c1coc(CNc2nc(NC3CCCCC3)nc3ccccc23)c1 Fulfilled
Cc1ccc(CNc2nc(NCc3ccccc3)c3ccccc3n2)cc1 Not fulfilled
Clc1ccc(CNc2nc(NCc3ccccc3)nc3ccccc23)cc1 Not fulfilled
CNc1nc(NC2CCCC2)nc2ccccc12 Not fulfilled
COc1ccc(CNc2nc(NCc3ccccc3)c3ccccc3n2)cc1 Not fulfilled

Qu. Dear reviewer, please state whether `COc1ccc(CNc2nc(NCc3ccc(OC)cc3)c3ccccc3n2)cc1` has selectivity ratio strictly beneath 3.
Ans. Fulfilled

Qu. Is selectivity ratio of `Cc1ccc(CNc2nc(NCc3ccc(C)cc3)c3ccccc3n2)cc1` strictly below 3?
Ans. Fulfilled

Qu. Quick check: selectivity ratio of `CNc1nc(NC)c2ccccc2n1` under 3?
Ans. Not fulfilled

Qu. Here's an entry: `COc1ccc(CNc2nc(NCc3ccccc3)nc3ccccc23)cc1` . Is its selectivity ratio below 3?
Ans. Fulfilled

Qu. Does this compound meet the criterion selectivity ratio < 3? `CC(C)Nc1nc(NCc2ccco2)nc2ccccc12`
Ans. Fulfilled

Qu. Answer whether the compound `CC(C)Nc1nc(NCc2ccccc2)nc2ccccc12` has selectivity ratio strictly less than 3
Ans. Not fulfilled

Qu. Just wondering, is selectivity ratio of `CC(C)Nc1nc(NC(C)C)c2ccccc2n1` below 3?
Ans. Not fulfilled

###

Experiment: Cytotoxicity against mouse J774A.1 cells assessed as inhibition of cell viability after 72 hrs by MTT assay
Format: cell-based
Conditions: J774.A1, 72 h
parameter.measured: EC50 (µM)
Your answer is read as µM, so omit the unit and give the number.

molecule	EC50 (µM)
CC(C)Nc1nc(Nc2ccccc2)c2ccccc2n1	12
COc1cc([C@@H]2c3cc4c(cc3[C@H](O)[C@H]3COC(=O)[C@H]23)OCO4)cc(OC)c1OC	0.021
CC(C)Nc1nc(NCC2CCCO2)c2ccccc2n1 (configuration not stated)	46
Cc1ccc(CNc2nc(NCc3ccc(C)cc3)c3ccccc3n2)cc1	2.9
c1ccc(CNc2nc(NCc3ccccc3)c3ccccc3n2)cc1	5.5
CC(C)Nc1nc(NCc2ccccc2)c2ccccc2n1	6.7
Cc1ccc(CNc2nc(NCc3ccccc3)nc3ccccc23)cc1	2.1
COc1ccc(CNc2nc(NCc3ccccc3)c3ccccc3n2)cc1	4.1

Qu. Entry under review: `CNc1nc(NC2CCCC2)nc2ccccc12` . Reported EC50?
Ans. 39

###

Reported Cmax values for the following compounds.
Test system: Liver
Assay: Cmax in Swiss-Webster mouse liver at 10 mg/kg, ip after 4 hrs by UPLC-MS/MS analysis
Format: ADME, organism-based
Design: dose 10 mg/kg, route intraperitoneal
Conditions: in vivo

Clc1ccc(CNc2nc(NCc3ccccc3)c3ccccc3n2)cc1 25.3 µM

API: the following record is the query input.
Qu. Dear colleague, I am looking for the recorded Cmax of the following compound: `CC(C)Nc1nc(NCc2ccccc2)nc2ccccc12`
Ans. 20.2 µM

###

Assay: Cytotoxicity against mouse J774A.1 cells assessed as inhibition of cell viability after 72 hrs by MTT assay
Assay type: cell-based
Details: J774.A1, 72 h
parameter.measured: EC50 (µM)
Respond with the bare value in µM.

Qu. Which EC50 is listed for `Cc1ccc(CNc2nc(NCc3ccccc3)c3ccccc3n2)cc1` ?
Ans. 4.5

###

Below, each entry is listed with its recorded Cmax.
System: Spleen
Assay: Cmax in Swiss-Webster mouse spleen at 10 mg/kg, ip after 4 hrs by UPLC-MS/MS analysis
Assay type: ADME, organism-based
Parameters: dose 10 mg/kg, route intraperitoneal
Conditions: in vivo
API: value field is a number in µM; no unit string.

Clc1ccc(CNc2nc(NCc3ccccc3)c3ccccc3n2)cc1 26.6

Shifting focus to the compound that follows.
Qu. If you can, please state the reported Cmax value of `CC(C)Nc1nc(NCc2ccccc2)nc2ccccc12` .
Ans. 16.5

###

Test: AUC in Swiss-Webster mouse plasma at 10 mg/kg, ip by UPLC-MS/MS analysis
Type: ADME, organism-based
parameter.measured: AUC(0-inf)
Answer by giving the amount and then stating its unit.

Clc1ccc(CNc2nc(NCc3ccccc3)c3ccccc3n2)cc1 15.7 µM·h

Please look at the following compound next.
Qu. Sample `CC(C)Nc1nc(NCc2ccccc2)nc2ccccc12` — what was its AUC(0-inf)?
Ans. 7.14 µM·h

###

Experiment: Apparent volume of distribution in Swiss-Webster mouse plasma at 10 mg/kg, ip by UPLC-MS/MS analysis
Type: ADME, organism-based
Conditions: read-out: Vz/F
Catalogue of compounds with associated Vd/F
Write the numeric value and append its unit.

Clc1ccc(CNc2nc(NCc3ccccc3)c3ccccc3n2)cc1 22.3 L/kg

Alright, here's another compound for you.
Qu. Any idea what its Vd/F is? The compound is `CC(C)Nc1nc(NCc2ccccc2)nc2ccccc12`
Ans. 1.15 L/kg

###

Assay: Selectivity index, ratio of EC50 for mouse J774A.1 cells to EC50 for of beta-lactamase expressing Leishmania donovani MHOM/ET/67/L82 infected in CD-1 mouse peritoneal macrophages
parameter.measured: selectivity ratio
Quick one: just the number, no unit, thanks!

molecule	parameter.measured	data.value
CC(C)Nc1nc(NCC2CCCO2)c2ccccc2n1 (stereo not drawn)	selectivity ratio	5.2

Qu. Query (molecule): `Clc1ccc(CNc2nc(NCc3ccccc3)c3ccccc3n2)cc1` ; field requested: selectivity ratio
Ans. 5.2

###

Assay: Selectivity index, ratio of EC50 for mouse J774A.1 cells to EC50 for of beta-lactamase expressing Leishmania donovani MHOM/ET/67/L82 infected in CD-1 mouse peritoneal macrophages
parameter.measured: selectivity ratio
API doc: respond with a numeric literal and nothing else, no unit.

Example entries begin here.
CC(C)Nc1nc(Nc2ccccc2)c2ccccc2n1 6.3
c1ccc(CNc2nc(OCc3ccccc3)c3ccccc3n2)cc1 5.1
CC(C)Nc1nc(NC2CC2)c2ccccc2n1 5.1
CNc1nc(NCc2ccccc2)nc2ccccc12 100
CC(C)Nc1nc(NCc2ccccc2)c2ccccc2n1 3.4

Let us move to another entry and its selectivity ratio.
Qu. Which selectivity ratio is reported for this compound? `Cc1ccc(CNc2nc(NCc3ccccc3)nc3ccccc23)cc1`
Ans. 5.4

###

Assay: Cytotoxicity against mouse J774A.1 cells assessed as inhibition of cell viability after 72 hrs by MTT assay
Assay type: cell-based
Settings: J774.A1, 72 h
pEC50: −log10 of the molar value.
# maps each entry to its pEC50

Consider the reported pEC50 for these compounds:
CC(C)Nc1nc(NC2CC2)nc2ccccc12 < 4.40
CNc1nc(NC)c2ccccc2n1 < 3.88

Qu. Recorded pEC50 of `CC(C)Nc1nc(NC(C)C)c2ccccc2n1` , please.
Ans. < 4.52

###

Test: Cytotoxicity against mouse J774A.1 cells assessed as inhibition of cell viability after 72 hrs by MTT assay
Format: cell-based
Details: J774.A1, 72 h
parameter.measured: EC50 (µM)
Numbers only here, please. The scale is µM.

Qu. What value of EC50 has been reported for the following compound? `c1ccc(CNc2nc(OCc3ccccc3)c3ccccc3n2)cc1`
Ans. 3.3

Qu. Returns the measured EC50 for the input compound. Input: `Clc1ccc(CNc2nc(NCc3ccccc3)c3ccccc3n2)cc1`
Ans. 3.2

Qu. Look at this compound and give its reported EC50. `COc1ccc(CNc2nc(NCc3ccccc3)nc3ccccc23)cc1`
Ans. 5.2

Qu. Quick one: EC50 of `CC(C)Nc1nc(NCc2ccco2)nc2ccccc12` ?
Ans. 8.3

Qu. GET /values?readout=EC50&item= `CC(C)Nc1nc(NC2CC2)c2ccccc2n1`
Ans. 31

###

Test: Cytotoxicity against mouse J774A.1 cells assessed as inhibition of cell viability after 72 hrs by MTT assay
Assay type: cell-based
Details: J774.A1, 72 h
parameter.measured: pEC50
Please note pEC50 is a logarithmic value: minus log10 of concentration in mol/L. Answer with that number alone.

c1coc(CNc2nc(NC3CCCCC3)nc3ccccc23)c1 5.28
CC(C)Nc1nc(NCc2ccccc2)nc2ccccc12 5.14
Clc1ccc(CNc2nc(NCc3ccccc3)nc3ccccc23)cc1 5.34
CNc1nc(NCc2ccccc2)nc2ccccc12 4.82
COc1ccc(CNc2nc(NCc3ccc(OC)cc3)c3ccccc3n2)cc1 5.66

Next compound, pEC50 to be filled in.
Qu. Name the reported pEC50 value associated with the compound `CC(C)Nc1nc(NCc2ccco2)c2ccccc2n1`
Ans. 4.77
